assay: Cmax in CD-1 mouse at 10 mg/kg, ig measured upto 24 hrs by UPLC analysis; type: ADME, organism-based; parameters: dose 10 mg/kg, time < 24 hrs, route ig; details: in vivo, po
METRIC: Cmax (ng/mL)
The reply should contain only the number, in ng/mL.

// fetch Cmax given entry "COc1nc(OCc2cccc(-c3ccccc3)c2C)ccc1CNCCO[C@@H]1O[C@H](CO)[C@@H](O)[C@H](O)[C@H]1NC(C)=O" 31.7

====

biological target: Programmed cell death protein 1/Programmed cell death 1 ligand 1 (Homo sapiens, UniProt Q9NZQ7); test: Inhibition of PD-1/His-tagged PD-L1 (unknown origin) protein-protein interaction incubated for 90 mins by AlphaLISA; type: protein-complex assay
Sequence (Q15116 whole entry): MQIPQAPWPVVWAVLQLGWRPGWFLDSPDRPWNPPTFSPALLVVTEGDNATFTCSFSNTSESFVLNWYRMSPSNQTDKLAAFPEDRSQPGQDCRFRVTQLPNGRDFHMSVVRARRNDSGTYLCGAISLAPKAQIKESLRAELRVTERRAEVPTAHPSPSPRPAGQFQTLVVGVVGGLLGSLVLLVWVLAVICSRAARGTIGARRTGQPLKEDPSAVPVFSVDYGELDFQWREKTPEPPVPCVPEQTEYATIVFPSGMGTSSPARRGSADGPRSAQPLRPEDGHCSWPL
Sequence (Q9NZQ7 whole entry): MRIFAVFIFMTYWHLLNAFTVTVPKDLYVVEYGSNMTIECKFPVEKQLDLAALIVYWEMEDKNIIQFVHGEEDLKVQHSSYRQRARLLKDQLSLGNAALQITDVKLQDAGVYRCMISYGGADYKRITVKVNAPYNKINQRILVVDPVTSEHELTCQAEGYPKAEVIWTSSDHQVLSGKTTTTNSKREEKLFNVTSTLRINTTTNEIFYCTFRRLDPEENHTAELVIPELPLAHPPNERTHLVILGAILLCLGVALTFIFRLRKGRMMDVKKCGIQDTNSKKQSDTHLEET
METRIC: pIC50
Note on units: pIC50 is unitless, being -log10 of a concentration expressed in mol/L.

For "Cc1c(COc2cc(OCc3cncc(C#N)c3)c(CN(CCCN(C)C)CCS(=O)(=O)O)cc2Cl)cccc1-c1ccc2c(c1)OCCO2" , write its pIC50. 7.63

====

experiment: Tmax in CD-1 mouse at 5 mg/kg, iv measured upto 24 hrs by UPLC analysis; format: ADME, organism-based; settings: in vivo
METRIC: Tmax

For the compound "COc1cc(OCc2cccc(-c3ccccc3)c2C)cc(OC)c1CNCCO[C@H]1O[C@H](CO)[C@@H](O)[C@H](O)[C@@H]1O" , give its reported Tmax. 34.8 min

====

experiment: Observed MRT infinity in CD-1 mouse at 10 mg/kg, ig measured upto 24 hrs by UPLC analysis; type: ADME, organism-based; conditions: in vivo, po
METRIC: MRT inf
Answer format: number, then unit.

Please supply the value of reported MRT inf for the item "COc1nc(OCc2cccc(-c3ccccc3)c2C)ccc1CNCCO[C@@H]1O[C@H](CO)[C@@H](O)[C@H](O)[C@H]1NC(C)=O" 10.2 h

====

Parameter half-life: see the listing below.
test: Half life in CD-1 mouse at 5 mg/kg, iv measured upto 24 hrs by UPLC analysis; assay type: ADME, organism-based; conditions: in vivo
Number only, in h; omit the unit.

smiles_text=COc1cc(OCc2cccc(-c3ccccc3)c2C)cc(OC)c1CNCCO[C@H]1O[C@H](CO)[C@@H](O)[C@H](O)[C@@H]1O metric=half-life experimental_value=3.78

Turning now to a further compound:
Quickly give me recorded half-life for "COc1nc(OCc2cccc(-c3ccccc3)c2C)ccc1CNCCO[C@@H]1O[C@H](CO)[C@@H](O)[C@H](O)[C@H]1NC(C)=O" 6.36

====

test: Volume of distribution at steady state in CD-1 mouse at 5 mg/kg, iv measured upto 24 hrs by UPLC analysis; format: ADME, organism-based; details: in vivo, read-out: Vdss
METRIC: Vd (L/kg)
Give the value in L/kg but do not write L/kg after it.

Identify measured Vd corresponding to "COc1nc(OCc2cccc(-c3ccccc3)c2C)ccc1CNCCO[C@@H]1O[C@H](CO)[C@@H](O)[C@H](O)[C@H]1NC(C)=O" 6.88

====

assay: Tmax in CD-1 mouse at 10 mg/kg, ig measured upto 24 hrs by UPLC analysis; format: ADME, organism-based; details: in vivo, po
METRIC: Tmax (min)
# number only, unit min dropped from output

Give the value of Tmax reported for the following: "COc1nc(OCc2cccc(-c3ccccc3)c2C)ccc1CNCCO[C@@H]1O[C@H](CO)[C@@H](O)[C@H](O)[C@H]1NC(C)=O" 30
